# System: GABA-A receptor
# assay: 35S-TBPS binding assay on rat cerebral cortex cell membrane
# Parameters: species or system Sprague-Dawley rat
# test_settings: 2 nM 35S-TBPS, GABA added, read-out: 35S-TBPS bindng test, IC50 on inhibiting the TBPS binding activity
Mark each entry Condition met if its IC50 sits below 10 nM, and Condition not met for all others.

molecule	class_name
C[C@@]1(O)CC[C@@]2(F)[C@H](CC[C@H]3[C@@H]4CC[C@H](C(=O)Cn5cc([N+](=O)[O-])cn5)[C@@]4(C)CC[C@@H]32)C1 [Example 58]	Condition not met
C[C@@]1(O)CC[C@@]2(F)[C@H](CC[C@H]3[C@@H]4CC[C@H](C(=O)Cn5nc6ccccc6n5)[C@@]4(C)CC[C@@H]32)C1 [Example 14]	Condition not met
C[C@@]1(O)CC[C@]2(F)C3CC[C@]4(C)[C@@H](C(=O)CNc5ccc(F)cc5F)CC[C@H]4[C@@H]3CC[C@@H]2C1 (stereo partly drawn) [Example 26]	Condition not met
C[C@@]1(O)CC[C@@]2(F)[C@H](CC[C@H]3[C@@H]4CC[C@H](C(=O)CNc5ccc(F)cc5C#N)[C@@]4(C)CC[C@@H]32)C1 [Example 27]	Condition met
C[C@@]1(O)CC[C@@]2(F)[C@H](CC[C@H]3[C@@H]4CC[C@H](C(=O)Cn5nccn5)[C@@]4(C)CC[C@@H]32)C1 [Example 10]	Condition met

---

# System: GABA-A receptor
# assay: 35S-TBPS binding assay on rat cerebral cortex cell membrane
# Set-up: species or system Sprague-Dawley rat
# test_settings: 2 nM 35S-TBPS, GABA added, read-out: 35S-TBPS bindng test, IC50 on inhibiting the TBPS binding activity
Mark each entry t if its IC50 sits below 10 nM, and f for all others.

molecule	class_name
COc1ccc2nnn(CC(=O)[C@H]3CC[C@H]4[C@@H]5CC[C@@H]6C[C@](C)(O)CC[C@]6(F)[C@H]5CC[C@]34C)c2c1 [Example 47]	t
C[C@@]1(O)CC[C@@]2(F)[C@H](CC[C@H]3[C@@H]4CC[C@H](C(=O)Cn5cc(C#N)c(C6CC6)n5)[C@@]4(C)CC[C@@H]32)C1 [Example 40]	f
C[C@@]1(O)CC[C@]2(F)C3CC[C@]4(C)[C@@H](C(=O)Cn5cc(C#N)c(Cl)n5)CC[C@H]4[C@@H]3CC[C@@H]2C1 (some centres unmarked) [Example 51]	f
C[C@@]1(O)CC[C@@]2(F)[C@H](CC[C@H]3[C@@H]4CC[C@H](C(=O)COc5ccc(C#N)cc5)[C@@]4(C)CC[C@@H]32)C1 [Example 33]	f
C[C@@]1(O)CC[C@@]2(F)[C@H](CC[C@H]3[C@@H]4CC[C@H](C(=O)Cn5nnc6ccccc65)[C@@]4(C)CC[C@@H]32)C1 [Example 15]	t
C[C@@]1(O)CC[C@@]2(F)[C@H](CC[C@H]3[C@@H]4CC[C@H](C(=O)Cn5ncnn5)[C@@]4(C)CC[C@@H]32)C1 [Example 12]	f
Cc1cnn(CC(=O)[C@H]2CC[C@H]3[C@@H]4CC[C@@H]5C[C@](C)(O)CC[C@]5(F)[C@H]4CC[C@]23C)c1 [Example 11]	f
C[C@@]1(O)CC[C@@]2(F)[C@H](CC[C@H]3[C@@H]4CC[C@H](C(=O)Cn5cc6ccncc6n5)[C@@]4(C)CC[C@@H]32)C1 [Example 16]	f
C[C@@]1(O)CC[C@@]2(F)[C@H](CC[C@H]3[C@@H]4CC[C@H](C(=O)COc5ccc(C#N)cc5F)[C@@]4(C)CC[C@@H]32)C1 [Example 31]	f
C[C@@]1(O)CC[C@@]2(F)[C@H](CC[C@H]3[C@@H]4CC[C@H](C(=O)Cn5nnc6ccc(F)cc65)[C@@]4(C)CC[C@@H]32)C1 [Example 19]	f
